Data credit: PubChem BioAssay

Can you tell me nuclei count for the items I'm about to list?
assay: endothelial E-selectin expression blockers – imaging, HUVEC, immunofluorescence, MLSMR starter and 10KST1 sets, primary screen (AID 487);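 further: 100% = median nuclei count of all wells on the same plate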
conditionNotes: HUVEC TNFalpha-induced E-selectin immunofluorescence imaging, at 2 µM; measured here: cell number, toxicity
Report as a plain number; the unit % is understood.

QUERY: Look up nuclei count of C=CCOC(=O)C1=C(C)OC(N)=C(C#N)[C@@]12C(=O)N(CC(N)=O)c1ccccc12 and report it.
RESULT: 193

QUERY: Look up nuclei count of NCCc1ccc(O)cc1 and report it.
RESULT: 92.7

QUERY: Look up nuclei count of CC1=NOC2(C)Nc3ncnn3C(c3ccccc3)C12 (stereo unspecified) and report it.
RESULT: 145

QUERY: Look up nuclei count of CCOCCN1CCC(OC(C)=O)C(C)C1 (stereo unspecified) and report it.
RESULT: 115

QUERY: Look up nuclei count of Cn1c(O)c(C=NC2CCN(Cc3ccccc3)CC2)c(=O)n(C)c1=O and report it.
RESULT: 136

QUERY: Look up nuclei count of CCCCC1(CN2CCCC2=O)C(=O)NC(=O)NC1=O and report it.
RESULT: 118

QUERY: Look up nuclei count of Cc1c(N=Cc2c(O)n(CCc3ccc(F)cc3)c(=O)[nH]c2=O)c(=O)n(-c2ccccc2)n1C and report it.
RESULT: 155

QUERY: Look up nuclei count of CN(C)[C@@H]1C(=O)C(C(N)=O)=C(O)[C@@]2(O)C(=O)C3=C(O)c4c(O)ccc(Cl)c4[C@@](C)(O)C3C[C@@H]12 (stereo partly specified) and report it.
RESULT: 123

QUERY: Look up nuclei count of CCOc1ccc(-n2c(O)c(C=Nc3ccc(N(CC)CC)cc3)c(=O)[nH]c2=O)cc1 and report it.
RESULT: 138

QUERY: Look up nuclei count of COP(=O)(OC)C(O)C(Cl)(Cl)Cl (stereo unspecified) and report it.
RESULT: 126

QUERY: Look up nuclei count of Cc1cccc(N2CCc3c2nc2ccccc2c3N)c1 and report it.
RESULT: 112

QUERY: Look up nuclei count of COc1cc(C2NCc3ccccc3-n3cccc32)ccc1O (stereo unspecified) and report it.
RESULT: 110

QUERY: Look up nuclei count of O=C(C(Cc1ccccc1)NS(=O)(=O)c1ccc(F)cc1)N1CCC2(CC1)OCCO2 (stereo unspecified) and report it.
RESULT: 122

QUERY: Look up nuclei count of CCOC(=O)C1SC2(C(F)F)CC1(O)c1c(c(OC)c3occc3c1OC)O2 (stereo unspecified) and report it.
RESULT: 105

QUERY: Look up nuclei count of CCN1CCN(c2ncnc3ccc(Br)cc23)CC1 and report it.
RESULT: 99.3

QUERY: Look up nuclei count of COc1ccc(Cn2c(O)c(C=NCCCn3ccnc3)c(=O)[nH]c2=O)cc1 and report it.
RESULT: 81.9

QUERY: Look up nuclei count of CCNc1ccc(P(=S)(N(C)C)N(C)C)cc1 and report it.
RESULT: 153

QUERY: Look up nuclei count of CC(C)(C)P(=O)(c1ccncc1)N1CCCC1 (stereo unspecified) and report it.
RESULT: 115

QUERY: Look up nuclei count of CC(=NCCO)c1c(O)n(C)c(=O)n(C)c1=O and report it.
RESULT: 90.8

QUERY: Look up nuclei count of O=C(C1CCCN(c2nnc(-n3cccc3)s2)C1)N1CCC2(CC1)OCCO2 (stereo unspecified) and report it.
RESULT: 92.8

QUERY: Look up nuclei count of COC(=NC1CCCC1)C(O)c1c[nH]c2ccccc12 (stereo unspecified) and report it.
RESULT: 79.7

QUERY: Look up nuclei count of CCCC12CN3CN(C1)CC(CCC)(C3)C2O (stereo unspecified) and report it.
RESULT: 146

QUERY: Look up nuclei count of CCN(CC)CCN=Cc1c(O)n(CCC2=CCCCC2)c(=O)[nH]c1=O and report it.
RESULT: 104

QUERY: Look up nuclei count of CN(C)CCc1nc2ccccc2c(=O)n1-c1ccccc1 and report it.
RESULT: 124

QUERY: Look up nuclei count of O=C1NCCN2CCCC12 (stereo unspecified) and report it.
RESULT: 158

QUERY: Look up nuclei count of CCCCCCn1c(O)c(C=NC2CCN(Cc3ccccc3)CC2)c(=O)[nH]c1=O and report it.
RESULT: 131

QUERY: Look up nuclei count of CN1CCC(OC(=O)C2c3ccccc3Oc3ccccc32)CC1 and report it.
RESULT: 143

QUERY: Look up nuclei count of COC1=CC(=O)OC(/C=C/c2ccccc2)C1 (stereo unspecified) and report it.
RESULT: 112

QUERY: Look up nuclei count of CN1CC=C2C(C#N)=C(N)C(C#N)(C#N)C(c3ccncc3)C2C1 (stereo unspecified) and report it.
RESULT: 179

QUERY: Look up nuclei count of CCOc1ccccc1-n1c(O)c(C=Nc2c(C)n(C)n(-c3ccccc3)c2=O)c(=O)[nH]c1=O and report it.
RESULT: 148

QUERY: Look up nuclei count of CCCCn1c(O)c(C(C)=NC(Cc2c[nH]c3ccccc23)C(=O)OC)c(=O)[nH]c1=O (stereo unspecified) and report it.
RESULT: 112

QUERY: Look up nuclei count of Nc1c(C(=O)NCc2ccco2)c2nc3ccccc3nc2n1Cc1ccc(F)cc1 and report it.
RESULT: 108

QUERY: Look up nuclei count of COc1ccc(CC[n+]2cc(/N=C(\C)[O-])on2)cc1OC and report it.
RESULT: 95.3

QUERY: Look up nuclei count of O=C(c1ccc2nc(-c3ccco3)c(-c3ccco3)nc2c1)N1CCC2(CC1)OCCO2 and report it.
RESULT: 105

QUERY: Look up nuclei count of O=C(Cn1c2c(c(-c3ccccc3Cl)cc1=O)CCC2)N1CCC2(CC1)OCCO2 and report it.
RESULT: 125

QUERY: Look up nuclei count of O=C(c1cccs1)C1CN2CCC1CC2 (stereo unspecified) and report it.
RESULT: 110

QUERY: Look up nuclei count of CCCCOCCCn1c(N)c(C(=O)OC(C)COC)c2nc3ccccc3nc21 (stereo unspecified) and report it.
RESULT: 146

QUERY: Look up nuclei count of O=c1[nH]c(=O)n(CCc2ccccc2)c(O)c1C=NCCCn1ccnc1 and report it.
RESULT: 94.5

QUERY: Look up nuclei count of Cc1ccc(C)c(NC2=NCCCS2)c1 and report it.
RESULT: 91

QUERY: Look up nuclei count of Cc1cccc(-n2c(O)c(C=NCCCN3CCOCC3)c(=O)[nH]c2=O)c1C and report it.
RESULT: 102

QUERY: Look up nuclei count of CCCCCCC(N)CC(=O)O (stereo unspecified) and report it.
RESULT: 80.1

QUERY: Look up nuclei count of C=CCOC(=O)C1=C(C)OC(N)=C(C#N)C12C(=O)N(CN1CCOCC1)c1ccccc12 (stereo unspecified) and report it.
RESULT: 88.4

QUERY: Look up nuclei count of Cc1[nH]c2c(Cl)cccc2c1CCN and report it.
RESULT: 110

QUERY: Look up nuclei count of CCN(CC)CCCC(C)N=C(c1ccccc1)c1c(O)n(C)c(=O)n(C)c1=O (stereo unspecified) and report it.
RESULT: 134

QUERY: Look up nuclei count of CCCCc1nc2ccccc2c(=O)n1-c1ccccc1O and report it.
RESULT: 178

QUERY: Look up nuclei count of Nc1ccc(C2(c3ccc(N)cc3)CN3CCC2CC3)cc1 and report it.
RESULT: 138
